Kindly state IC50, nM; cell killing of U87MG-hEGFRvIII (CellTiter-Glo, 5 days) for each of the entries shown.
Biological target: human EGFRvIII protein on the cell surface (human, UniProt P00533 25-1210)
Test: cell-based or functional assay
Express it in nM; write the number only.

In: May I ask what IC50, nM; cell killing of U87MG-hEGFRvIII (CellTiter-Glo, 5 days) has been recorded for Chimeric antibody 64F1-MMAF (antibody, human IgG1, V domains shown, MC-MMAF coupled after TCEP reduction (sites not given); DAR 4.05 for the antibody) VH: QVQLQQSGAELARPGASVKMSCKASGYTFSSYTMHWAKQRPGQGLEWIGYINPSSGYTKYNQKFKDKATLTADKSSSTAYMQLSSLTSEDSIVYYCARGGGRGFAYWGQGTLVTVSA VL: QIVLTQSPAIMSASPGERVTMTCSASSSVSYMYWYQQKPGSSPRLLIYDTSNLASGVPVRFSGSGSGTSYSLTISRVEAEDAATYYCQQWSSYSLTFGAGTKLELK ?
Out: 0.01

In: Also, Chimeric antibody 63A10-MMAF (antibody, human IgG1, V domains shown, MC-MMAF coupled after TCEP reduction (sites not given); DAR 3.10 for the antibody) VH: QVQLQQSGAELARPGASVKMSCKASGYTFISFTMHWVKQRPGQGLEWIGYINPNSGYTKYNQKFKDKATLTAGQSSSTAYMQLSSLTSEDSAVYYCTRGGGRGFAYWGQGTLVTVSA VL: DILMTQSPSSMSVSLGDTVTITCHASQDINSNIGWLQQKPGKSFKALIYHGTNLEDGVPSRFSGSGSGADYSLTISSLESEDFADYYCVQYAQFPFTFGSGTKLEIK please.
Out: 0.01

In: Next record, please: Chimeric antibody 75G7-MMAF (antibody, human IgG1, V domains shown, MC-MMAF coupled after TCEP reduction (sites not given); DAR 3.40 for the antibody) VH: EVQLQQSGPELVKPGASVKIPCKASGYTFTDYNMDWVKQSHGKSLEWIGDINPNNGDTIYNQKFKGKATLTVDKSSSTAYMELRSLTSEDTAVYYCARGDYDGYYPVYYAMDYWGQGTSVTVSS VL: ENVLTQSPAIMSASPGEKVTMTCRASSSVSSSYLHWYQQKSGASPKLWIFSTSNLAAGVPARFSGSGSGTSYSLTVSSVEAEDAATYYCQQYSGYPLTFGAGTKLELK
Out: 0.27
